Measured values drawn from patent US4138423A for this set.

Method notes: peroral toxicity to mammals (rat)
Test conditions: in vivo, po, peroral, Table I, read-out: A.O. Rat. LD50
Measure name: LD50 (mg/kg)
Numeric only. Scale: mg/kg

Value lookup for LD50; key = CSC(C)=NOC(=O)N(C)SSC(C)C [XV]
113

Value lookup for LD50; key = CSC(C)(C)C=NOC(=O)N(C)SSc1ccc(Cl)cc1 [XIV]
2

Value lookup for LD50; key = CC(=NOC(=O)N(C)SSC(C)(C)C)SC(C)C [XII]
30.8

Value lookup for LD50; key = CC(=NOC(=O)N(C)SSC(C)(C)C)SCCC#N [XIII]
10

Value lookup for LD50; key = CC(=NOC(=O)N(C)SSC(C)C)SCCC#N [IV]
14.1

----------
LD50 values for the molecules below.
Method notes: peroral toxicity to mammals (rat)
Test conditions: in vivo, po, peroral, Table I, read-out: A.O. Rat. LD50
Numeric only. Scale: mg/kg

Solved entries:
| Molecule | LD50 / mg/kg |
| --- | --- |
| CSC(C)=NOC(=O)N(C)SSc1ccc(C(C)(C)C)cc1 [XI] | 180 |
| CSC(C)=NOC(=O)N(C)SSc1ccc(Cl)cc1 [Example III] | 160 |

Value lookup for LD50; key = CSC(C)=NOC(=O)N(C)SSC(C)(C)C [Example I]
143

Value lookup for LD50; key = CSC(C)=NOC(=O)N(C)SSC1CCCCC1 [Example II]
101

Value lookup for LD50; key = CSC(C)=NOC(=O)N(C)SSc1ccccc1 [IX]
143

Value lookup for LD50; key = CSC(C)=NOC(=O)N(C)SSc1ccc(C)cc1 [X]
63.5
